test system: RPMI-8226; assay: NCI tumour cell line growth inhibition, 48 h
Calls of active or inactive are those of the source. Cut-off read from the data, not from the text of the source: active = GI50 up to about 1.1 µM and inactive = higher.
Pick from active, inactive when you respond.

Inquiry: Hi, sorry to bother you, what did the test record for C=C(Cl)C(Br)(CBr)CCC(Br)C(C)(C)Br (centres undefined) ?
Reply text: inactive

Inquiry: Could you check what this test reported for CN1CCC23c4c5ccc(O)c4OC2c2[nH]c4ccccc4c2CC3(O)C1C5 (centres undefined) ?
Reply text: inactive

Inquiry: # outcome recorded in this test, key = "N=C1c2ccccc2C(=O)c2c(NCCNCCO)ccc(O)c21"
Reply text: inactive

Inquiry: Identify the outcome logged in this assay for the molecule shown: FC(F)(F)c1ccccc1C1SCC2=Nc3ccccc3CN21 (centres undefined)
Reply text: inactive

Inquiry: For this molecule, state the assay outcome: CCCCC1Cc2ccccc2-c2n1c1ccccc1[n+]2C (centres undefined)
Reply text: inactive

Inquiry: Write down the call the test reported for this molecule. Item: CC(N)C(=O)OCN1C(=O)C2C3C=CC(C2C1=O)C1C2C(=O)N(COC(=O)C(C)N)C(=O)C2C31 (centres undefined)
Reply text: inactive

Inquiry: Hello, I am checking results. What call was entered for "Clc1ccc(CCNCCNC2(c3cc4ccccc4s3)CCCCC2)cc1Cl" ?
Reply text: inactive

Inquiry: Please share the test call associated with COC(=O)[C@@]12C=CC(=O)[C@H]3C[C@@H](C(C(C)C)C1)[C@]32OC (some centres undefined) .
Reply text: inactive

Inquiry: Dear colleague, could you share the recorded outcome for "O=C(Nn1c(-c2ccccc2)nc2ccccc2c1=O)c1ccc(CS)cc1" when you have a moment?
Reply text: inactive

Inquiry: Identify the outcome logged in this assay for the molecule shown: O=C(OC1CC(n2cc(F)c(=O)[nH]c2=O)OC1CSC(=O)c1ccccc1)c1ccccc1 (centres undefined)
Reply text: inactive

Inquiry: Please let me know the test result on file for COC1C(N)C(OC2C(Oc3cccc4c(O)c5c(=O)oc6ccc(C)c7c(=O)oc(c34)c5c67)OC(C)C(O)C2(C)O)OC(C)C1O (centres undefined) .
Reply text: active

Inquiry: What outcome does the record of this test show for "CCC1=C(C)/C(=C/c2[nH]c(C(Br)Br)c(CC)c2C)N=C1C(Br)Br" ?
Reply text: inactive

Inquiry: Identify the outcome logged in this assay for the molecule shown: "O=c1cc(-c2ccccc2)oc2cc(OCC(O)COc3ccc4c(=O)cc(-c5ccccc5)oc4c3)ccc12"
Reply text: inactive

Inquiry: For this molecule, state the assay outcome: "Cn1c2ccccc2c(=O)c2c(O)cc3c(c21)C=CC1(CCCC1)O3"
Reply text: inactive

Inquiry: For this molecule, state the assay outcome: "CCCCN(CCCC)C(=O)C(=O)CC(=O)c1ccc(Br)cc1"
Reply text: inactive

Inquiry: Check the results log: what was the call for "CC[C@H](O)[C@H](C)C=C1SCCCS1" ?
Reply text: inactive

Inquiry: Hi, do you know how "O=C(Nc1ccccc1[N+](=O)[O-])c1ccccc1" came out in this test?
Reply text: inactive

Inquiry: Fill in: this test's call for "CN(C)C(=S)/N=c1\ssc(=S)n1Cc1cccnc1" is ___
Reply text: inactive

Inquiry: Entry "Cc1c(C)c(C)c(-n2c(=O)n(C)c(=O)n2-c2cc(C(C)(C)C)cc(C(C)(C)C)c2O)c(C)c1C" : call = ?
Reply text: inactive

Inquiry: # fetch the recorded call for O=C1CSC(c2cc3cc(Br)ccc3nc2Cl)N1c1ccc(Cl)cc1 (centres undefined) here
Reply text: inactive

Inquiry: So what was the verdict on COC(=O)[C@@]1(NC(=O)C(CC(=O)OC(C)(C)C)NC(=O)OC(C)(C)C)C[C@H]1C (some centres undefined) in this test?
Reply text: inactive

Inquiry: Any idea what this test logged for CCOC(OCC)C(CC)[Se]c1ccccc1 (centres undefined) ?
Reply text: inactive

Inquiry: // param item: "Nc1nc(CCC(=O)Nc2cccc(C(F)(F)F)c2)cc(-c2ccc3ccccc3c2)n1" ; yields the recorded call
Reply text: inactive

Inquiry: Assay outcome for "Cc1c(C(=O)CSc2nc3ccccc3c(=O)n2-c2ccccc2)c(=O)n(-c2ccccc2)n1C" : what was it?
Reply text: inactive

Data origin: ChEMBL document CHEMBL1201862
